Consider the following compounds and their measured melting point readings.
assay metric: melting point

>>> result("CC(=O)NCCNc1nc(-c2ccccc2)nc2[nH]c(C(=O)N3CCC(c4ccccc4)(c4ccccc4)CC3)cc12 [26.25]")
"254 to 256 °C"
>>> result("CC(=O)NCCNc1nc(-c2ccccc2)nc2[nH]c(C(=O)N3CCN(CCc4ccccc4)CC3)cc12 [26.11]")
"226 to 228 °C"
>>> result("CC(=O)NCCNc1nc(-c2ccccc2)nc2[nH]c(C(=O)N3CCC(O)(C(C)C)CC3)cc12 [26.4]")
"140 to 145 °C (dec.)"
>>> result("CC(=O)NCCNc1nc(-c2ccccc2)nc2[nH]c(C(=O)N3CCN(c4ccccn4)CC3)cc12 [26.35]")
"223 to 226 °C (dec.)"
>>> result("CC(=O)NCCNc1nc(-c2ccccc2)nc2[nH]c(C(=O)N3CCC(O)(c4ccccc4)CC3)cc12 [26.7]")
"158 to 162 °C (dec.)"
>>> result("CC(=O)NCCNc1nc(-c2ccccc2)nc2[nH]c(C(=O)N3CCCC(c4ccccc4)(c4ccccc4)C3)cc12 [26.26]")
"156 to 159 °C (dec.)"
>>> result("COC(=O)c1cccc(OCc2cc3c(NCCNC(C)=O)nc(-c4ccccc4)nc3[nH]2)c1 [9.19]")
"80 to 85 °C (dec.)"
>>> result("CC(=O)NCCNc1nc(-c2ccccc2)nc2[nH]c(C(=O)N3CCC(C(O)c4ccc(F)cc4)CC3)cc12 (centres unmarked) [26.29]")
"135 to 145 °C (dec.)"

###

Consider the following molecules and their measured melting point readings.
assay metric: melting point

>>> result("CC(=O)NCCNc1nc(-c2ccccc2)nc2[nH]c(C(=O)Nc3cccc(Oc4ccccc4)c3)cc12")
"140 to 142 °C"
>>> result("CC(=O)NCCNc1nc(-c2ccccc2)nc2[nH]c(C(=O)N3CCC(Cc4ccc(F)cc4)CC3)cc12")
"283 to 284 °C (dec.)"
>>> result("CC(=O)NCCNc1nc(-c2ccccc2)nc2[nH]c(C(=O)N3CCCC(C)(c4ccccc4)C3)cc12 (stereo not drawn)")
"140 to 145 °C"

###

Consider the following compounds and their measured melting point readings.
assay metric: melting point

>>> result("CC(=O)NCCNc1nc(-c2ccccc2)nc2[nH]c(C(=O)N3C[C@@H](C)N(Cc4ccccc4)[C@@H](C)C3)cc12")
"196 to 198 °C"
>>> result("NC(=O)CNc1nc(-c2ccccc2)nc2[nH]c(C(=O)N3CCN(CCCc4ccccc4)CC3)cc12")
"213 to 217 °C"
>>> result("CC(=O)NCCNc1nc(-c2ccccc2)nc2[nH]c(C(=O)N3C[C@@H](C)N(CCc4ccccc4)[C@@H](C)C3)cc12")
"110 to 115 °C (dec.)"
>>> result("CC(=O)NCCNc1nc(-c2ccccc2)nc2[nH]c(C(=O)N3CCN(CC#Cc4ccccc4)CC3)cc12")
"213 to 215 °C"

###

Consider the following compounds and their measured melting point readings.
assay metric: melting point

>>> result("CC(=O)NCCNc1nc(-c2ccccc2)nc2[nH]c(C(=O)NC3CC4CCC3C4)cc12 (stereo not shown)")
"280 to 285 °C (dec.)"
>>> result("CC(=O)NCCNc1nc(-c2ccccc2)nc2[nH]c(C(=O)N3C[C@@H](C)N(CCCc4ccccc4)[C@@H](C)C3)cc12")
"86 to 89 °C"
>>> result("CC(=O)NCCNc1nc(-c2ccccc2)nc2[nH]c(C(=O)N3CCC(O)(c4ccc(F)cc4)CC3)cc12")
"150 to 153 °C"
>>> result("CC(=O)NCCNc1nc(-c2ccccc2)nc2[nH]c(C(=O)N3CCN(c4ncccc4C(F)(F)F)CC3)cc12")
"225 to 228 °C"
>>> result("CC(=O)NCCNc1nc(-c2ccccc2)nc2[nH]c(C(=O)N3CCC4(CC3)CCN(Cc3ccccc3)C4=O)cc12")
"140 °C (dec.)"
>>> result("CC(=O)NCCNc1nc(-c2ccccc2)nc2[nH]c(C(=O)N3CCC(O)(Cc4ccccc4)CC3)cc12")
"140 to 145 °C (dec.)"
>>> result("CC(=O)NCCNc1nc(-c2ccccc2)nc2[nH]c(C(=O)N3CC=C(c4ccc(Cl)cc4)CC3)cc12")
"172 to 175 °C"

###

assay metric: melting point

>>> result("COC1(c2ccccc2Cl)CCN(C(=O)c2cc3c(NCCNC(C)=O)nc(-c4ccccc4)nc3[nH]2)CC1 [26.42]")
"201 to 202 °C"
>>> result("CC(=O)NCCNc1nc(-c2ccccc2)nc2[nH]c(C(=O)N3CCN(c4ccc(F)cc4)CC3)cc12 [26.38]")
"234 °C"
>>> result("COC1(c2ccc(F)cc2)CCN(C(=O)c2cc3c(NCCNC(C)=O)nc(-c4ccccc4)nc3[nH]2)CC1 [26.48]")
"134 to 137 °C"
>>> result("CC(=O)NCCNc1nc(-c2ccccc2)nc2[nH]c(C(=O)N3C[C@@H](C)N[C@@H](C)C3)cc12 [26.22]")
"138 to 140 °C"

###

assay metric: melting point

>>> result("CC(=O)NCCNc1nc(-c2ccccc2)nc2[nH]c(C(=O)N3C[C@@H](C)N(CCCc4ccccc4)C[C@@H]3C)cc12")
"98 to 100 °C"
>>> result("CC(=O)NCCNc1nc(-c2ccccc2)nc2[nH]c(/C=N/OCc3ccccc3)cc12")
"83 to 87 °C (dec.)"
>>> result("CC(=O)NCCNc1nc(-c2ccccc2)nc2[nH]c(C(=O)N3CCC(C#N)(c4ccccc4)CC3)cc12")
"150 to 155 °C (dec.)"
>>> result("NC(=O)CNc1nc(-c2ccccc2)nc2[nH]c(C(=O)N3CCC(O)(c4ccc(Cl)cc4)CC3)cc12")
"200 to 205 °C (dec.)"
